Below, pKi values reported for UniProt P08908 across several publications.
Sequence (P08908 whole entry): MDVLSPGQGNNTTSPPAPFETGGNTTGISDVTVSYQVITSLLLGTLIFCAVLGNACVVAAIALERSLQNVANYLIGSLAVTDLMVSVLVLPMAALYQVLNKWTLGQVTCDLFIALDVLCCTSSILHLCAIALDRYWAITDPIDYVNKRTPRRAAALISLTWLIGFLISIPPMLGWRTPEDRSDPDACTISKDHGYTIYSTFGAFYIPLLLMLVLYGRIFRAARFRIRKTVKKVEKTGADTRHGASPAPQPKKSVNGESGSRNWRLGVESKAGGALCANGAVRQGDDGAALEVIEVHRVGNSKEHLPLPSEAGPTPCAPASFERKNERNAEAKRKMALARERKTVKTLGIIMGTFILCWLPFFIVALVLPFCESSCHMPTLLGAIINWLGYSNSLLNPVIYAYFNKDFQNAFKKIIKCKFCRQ
Kindly note that pKi refers to -log10 of the concentration in mol/L and answer with the value alone.

Below, 4 molecules whose answers are already recorded.
{"molecule": "CSc1ccccc1N1CCN(CCCCCC(=O)NC2CCCc3ccccc32)CC1 (stereo not given)", "experimentalSystem": "UniProt P08908", "pKi": 9.66}
{"molecule": "O=c1ccc2ccc(OCCCCN3CCN(c4cccc5sccc45)CC3)cc2[nH]1", "experimentalSystem": "UniProt P08908", "pKi": 7.63}
{"molecule": "O=S(=O)(c1ccccc1)n1cccc1-c1cccc(N2CCNCC2)c1", "experimentalSystem": "UniProt P08908", "pKi": 5.61}
{"molecule": "Clc1cccc(COc2cncc(N3CCNCC3)n2)c1", "experimentalSystem": "UniProt P08908", "pKi": 5.13}

Pending molecule:
Exam item: Give recorded pKi with UniProt P08908 for the following molecule: COc1ccnc(N2CCC3(CCCN(Cc4c[nH]c5ccccc45)C3=O)CC2)n1
Marked response: 5.49
